biological target: T1, human MSLN-hFc protein (Acro, Cat. No. MSN-H5253) (human, UniProt Q13421 296-580); experiment: ELISA on coated antigen, antibody 0.0001 nM
T1 construct: the method names the coated protein as human MSLN-hFc (Acro); also called human MSLN full-length protein
T1 sequence (Q13421 other isoform, or with tags, fused parts or gaps limits assumed): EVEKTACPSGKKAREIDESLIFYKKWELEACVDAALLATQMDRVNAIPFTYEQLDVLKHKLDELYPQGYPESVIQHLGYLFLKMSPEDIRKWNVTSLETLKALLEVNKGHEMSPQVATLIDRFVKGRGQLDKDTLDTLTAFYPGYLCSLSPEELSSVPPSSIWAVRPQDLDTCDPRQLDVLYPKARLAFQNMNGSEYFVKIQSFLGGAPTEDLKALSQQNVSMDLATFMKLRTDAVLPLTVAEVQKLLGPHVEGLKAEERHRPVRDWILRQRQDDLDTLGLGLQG
observable: OD450 (OD450)
Report only the number, with the unit OD450 understood.

>>> reported_value("F7.33.24-H10 (scFv, not shown: small tags and cut ends, also called S009-F7.33.24 humanized antibody VH2a + VL1) scFv: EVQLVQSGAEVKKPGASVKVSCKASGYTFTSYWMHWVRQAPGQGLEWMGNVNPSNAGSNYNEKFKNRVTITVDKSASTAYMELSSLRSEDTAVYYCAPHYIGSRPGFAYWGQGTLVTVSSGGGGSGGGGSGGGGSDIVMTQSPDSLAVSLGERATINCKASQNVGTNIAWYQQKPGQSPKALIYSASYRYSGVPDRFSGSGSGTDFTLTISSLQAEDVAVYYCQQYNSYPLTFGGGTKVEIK")
0.04
>>> reported_value("F7.33.24-H9 (scFv, not shown: small tags and cut ends, also called S009-F7.33.24 humanized antibody VH2 + VL3) scFv: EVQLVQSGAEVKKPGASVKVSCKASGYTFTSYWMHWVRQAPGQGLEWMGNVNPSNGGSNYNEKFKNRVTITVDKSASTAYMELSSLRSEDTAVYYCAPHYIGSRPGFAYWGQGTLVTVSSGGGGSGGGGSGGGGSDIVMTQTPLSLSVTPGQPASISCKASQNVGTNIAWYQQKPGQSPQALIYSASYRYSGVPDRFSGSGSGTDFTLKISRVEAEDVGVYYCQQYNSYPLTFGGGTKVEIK")
0.05

Q: Query OD450 for F7.33.24-H2 (scFv, not shown: small tags and cut ends, also called S009-F7.33.24 humanized antibody VH1 + VL2) scFv: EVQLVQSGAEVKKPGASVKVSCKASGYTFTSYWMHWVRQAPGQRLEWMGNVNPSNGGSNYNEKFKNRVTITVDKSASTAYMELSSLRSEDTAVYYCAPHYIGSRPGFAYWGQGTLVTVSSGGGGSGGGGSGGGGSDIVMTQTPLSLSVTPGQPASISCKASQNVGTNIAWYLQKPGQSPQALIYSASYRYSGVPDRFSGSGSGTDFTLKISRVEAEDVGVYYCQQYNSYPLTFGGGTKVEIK
Result: 0.05

Q: Query OD450 for F7.33.24-H11 (scFv, not shown: small tags and cut ends, also called S009-F7.33.24 humanized antibody VH2a + VL2) scFv: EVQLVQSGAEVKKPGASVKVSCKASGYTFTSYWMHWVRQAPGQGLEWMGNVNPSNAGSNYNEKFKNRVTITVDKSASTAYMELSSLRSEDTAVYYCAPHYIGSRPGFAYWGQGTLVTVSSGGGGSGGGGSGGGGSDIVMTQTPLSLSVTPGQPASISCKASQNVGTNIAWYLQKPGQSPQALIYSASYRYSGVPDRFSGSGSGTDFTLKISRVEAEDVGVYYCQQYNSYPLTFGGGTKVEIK
Result: 0.04

Q: Query OD450 for F7.33.24-H12 (scFv, not shown: small tags and cut ends, also called S009-F7.33.24 humanized antibody VH2a + VL3) scFv: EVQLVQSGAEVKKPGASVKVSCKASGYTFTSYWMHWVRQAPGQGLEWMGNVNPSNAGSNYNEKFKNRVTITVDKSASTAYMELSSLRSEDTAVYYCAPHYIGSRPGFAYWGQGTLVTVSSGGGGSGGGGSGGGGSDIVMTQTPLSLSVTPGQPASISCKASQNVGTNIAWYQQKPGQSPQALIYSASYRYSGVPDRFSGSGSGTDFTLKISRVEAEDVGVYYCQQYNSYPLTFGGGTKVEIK
Result: 0.05
